Test system: PAD
Assay: qHTS profiling for inhibitors of Plasmodium falciparum proliferation (AID 504749); note: nearly all actives have a fitted effect of over 60% in size; note: potency is the fitted concentration of half-maximal effect
Details: P. falciparum in erythrocytes, SYBR Green DNA, 72 h; series mostly up to 12.8 µM
Inconclusive results are not listed. The source made the active and inactive calls. Calls come from the whole dose curve; as a rule, active = well fitted inhibition curve with a large enough effect; inconclusive = small, poorly fitted or top-dose-only effect; inactive = flat fitted curve, though single readings scatter.
Test Readout: Potency

Look over these answered cases.
>>> result("COc1ccc2cc(C(C)CO)ccc2c1 (centres undefined)")
"inactive"
>>> result("C[C@H](C(=O)O)c1cccc(Oc2ccccc2)c1")
"inactive"
>>> result("CCOC(=O)Oc1c(OC)cc(C(=O)O[C@H]2C[C@H]3CN4CCc5c([nH]c6cc(OC)ccc56)[C@@H]4C[C@H]3[C@@H](C(=O)OC)[C@@H]2OC)cc1OC")
"3.55 µM (active)"
>>> result("C=CCOc1ccccc1OC[C@H](O)CNC(C)C")
"inactive"

Sample COc1cc(C2c3cc4c(cc3C(O[C@@H]3OC5COC(c6cccs6)OC5C(O)C3O)C3COC(=O)C23)OCO4)cc(OC)c1O (some centres undefined) — what was its Potency?
2 µM (active)

Sample O=C(Nc1ccccc1)OC[C@H](CN1CCCCC1)OC(=O)Nc1ccccc1 — what was its Potency?
inactive

----------
Assay System: Rap guanine nucleotide exchange factor 4 (Homo sapiens)
Assay: Confirmatory qHTS for antagonist of cAMP-regulated guanine nucleotide exchange factor 4 (EPAC2) (AID 1645885); note: nearly all actives have a fitted effect of over 25% in size
Details: EPAC2 Rap1B-BODIPY-GDP exchange fluorescence, biochemical; series mostly up to 12.7 µM
Records with an inconclusive call do not appear. The source made the active and inactive calls. Calls come from the whole dose curve; as a rule, active = well fitted inhibition curve with a large enough effect; inconclusive = small, poorly fitted or top-dose-only effect; inactive = no such curve, though single readings can be large or run the other way.
Classes to choose from: active, inactive

The examples below pair each entry with its known result.
>>> class_assignment("COc1ccc(C2CC(=O)n3c(nc4ccccc43)S2)cc1OC (stereo not drawn)")
"inactive"
>>> class_assignment("COc1ccc(C(=O)Nc2cccc(/C=C(\\CCC(=O)O)c3nc4ccccc4s3)c2)cc1")
"inactive"
>>> class_assignment("Cc1ccc(-n2nc3ccc(NC(=O)/C=C/c4ccco4)cc3n2)cc1")
"inactive"
>>> class_assignment("CC(/C=C1\\SC(=S)N(NS(=O)(=O)c2ccccc2)C1=O)=C\\c1ccccc1")
"inactive"
>>> class_assignment("Oc1ccc(NCc2ccccc2OCc2ccc(Cl)cc2)cc1")
"inactive"
>>> class_assignment("Cc1ccc(S(=O)(=O)Nc2cccc(C(=O)NCC(c3ccco3)N3CCCCC3)c2)cc1F (stereo not drawn)")
"inactive"

# input for lookup
Which outcome was entered for the compound CCCCn1c(N)c(N(CC(C)C)C(=O)C2CCN(S(=O)(=O)c3ccc(C)c(C)c3)CC2)c(=O)[nH]c1=O in this test?
inactive

----------
Tested on: PC49
Assay: qHTS profiling for inhibitors of Plasmodium falciparum proliferation (AID 504749); note: nearly all actives have a fitted effect of over 60% in size
Details: P. falciparum in erythrocytes, SYBR Green DNA, 72 h; series mostly up to 12.8 µM
Inconclusive results are not listed. Calls of active or inactive are those of the source. The call rests on the fitted dose curve; in most records, active means well fitted inhibition curve with a large enough effect; inconclusive means small, poorly fitted or top-dose-only effect; inactive means flat fitted curve, though single readings scatter.
Classes to choose from: active, inactive

>>> class_assignment("CO[C@@H]1C[C@H](O[C@H]2[C@@H](C)[C@H](O[C@@H]3O[C@@H](C)C[C@@H](N(C)C)[C@@H]3OC(C)=O)[C@H](C)C[C@]3(CO3)C(=O)[C@H](C)[C@H](OC(C)=O)[C@H](C)[C@H](C)OC(=O)[C@@H]2C)O[C@H](C)[C@@H]1OC(C)=O")
"inactive"
>>> class_assignment("COc1ccc(CC(N)C(=O)NC2C(CO)OC(n3cnc4c(N(C)C)ncnc43)C2O)cc1 (stereo not drawn)")
"active"
>>> class_assignment("CC(=O)O[C@@]1(C(C)=O)CCC2C3CC(C)C4=CC(=O)CC[C@@]4(C)C3CC[C@]21C (stereo partly drawn)")
"inactive"
>>> class_assignment("CCOC(=O)C1=CC(OC(CC)CC)C(NC(C)=O)C(N)C1 (stereo not drawn)")
"inactive"
>>> class_assignment("CCO[C@H]1O[C@@H]([C@H](COCc2ccccc2)OCc2ccccc2)[C@@H](OCc2ccccc2)[C@H]1O")
"inactive"
>>> class_assignment("CO[C@]12C(COC(N)=O)C3=C(C(=O)C(C)=C(N)C3=O)N1CC1NC12 (stereo partly drawn)")
"active"
>>> class_assignment("CCC(C)(C)C(=O)O[C@@H]1C[C@H](C)C=C2C=C[C@H](C)[C@@H](CC[C@H]3C[C@@H](O)CC(=O)O3)[C@H]21")
"inactive"
>>> class_assignment("C[C@@]12CCC(=O)C=C1C=CC1C2CC[C@]2(C)C1CC[C@@]21CCC(=O)O1 (stereo partly drawn)")
"inactive"

# input for lookup
Which outcome was entered for the molecule CN[C@H]1[C@H](O)[C@@H](O[C@@H]2[C@H](O)[C@@H](O[C@H]3OC(CN)=CC[C@H]3N)[C@@H](N)C[C@H]2N)OC[C@@]1(C)O in this test?
inactive

----------
Test system: CP291
Assay: qHTS profiling for inhibitors of Plasmodium falciparum proliferation (AID 504749); note: nearly all actives have a fitted effect of over 60% in size
Details: P. falciparum in erythrocytes, SYBR Green DNA, 72 h; series mostly up to 12.8 µM
Results filed as inconclusive are left out. Active and inactive are the calls of the source. The call rests on the fitted dose curve; in most records, active means well fitted inhibition curve with a large enough effect; inconclusive means small, poorly fitted or top-dose-only effect; inactive means flat fitted curve, though single readings scatter.
Classes to choose from: yes = active, no = inactive

Which outcome was entered for the molecule NCc1ccccc1CC(=O)N[C@@H]1C(=O)N2C(C(=O)O)=C(CSc3nnnn3CC(=O)O)CS[C@@H]12 in this test?
no

Which outcome was entered for the molecule CCOC(=O)[C@H](CCc1ccccc1)N[C@@H](C)C(=O)N1[C@H](C(=O)O)C[C@H]2CCC[C@@H]21 in this test?
no

Which outcome was entered for the molecule CC[C@H]1NC(=O)c2cc(S(N)(=O)=O)c(Cl)cc2N1 in this test?
no

Which outcome was entered for the molecule C=CCOc1ccccc1OC[C@H](O)CNC(C)C in this test?
no

Which outcome was entered for the molecule C[C@H](CCC(=O)O)[C@H]1CC[C@@H]2[C@@H]3[C@@H](O)C[C@H]4C[C@@H](O)CC[C@@]4(C)[C@H]3CC[C@@]21C in this test?
no

----------
Test system: CP201
Assay: qHTS profiling for inhibitors of Plasmodium falciparum proliferation (AID 504749); note: nearly all actives have a fitted effect of over 60% in size
Details: P. falciparum in erythrocytes, SYBR Green DNA, 72 h; series mostly up to 12.8 µM
Inconclusive results are not listed. Activity calls are given as the source filed them. Calls come from the whole dose curve; as a rule, active = well fitted inhibition curve with a large enough effect; inconclusive = small, poorly fitted or top-dose-only effect; inactive = flat fitted curve, though single readings scatter.
Classes to choose from: active, inactive

>>> class_assignment("CCOC(=O)O[C@@H](C)OC(=O)[C@@H]1N2C(=O)[C@@H](NC(=O)[C@@H](N)c3ccccc3)[C@H]2SC1(C)C")
"inactive"

Which outcome was entered for the molecule NC(=O)c1cc[n+](CC2=C(C(=O)[O-])N3C(=O)[C@@H](NC(=O)Cc4cccs4)[C@@H]3SC2)cc1 in this test?
inactive

Which outcome was entered for the molecule CCOC(=O)O[C@]1(C(=O)COC(=O)CC)CC[C@@H]2[C@@H]3CCC4=CC(=O)C=C[C@@]4(C)[C@H]3[C@H](O)C[C@]21C in this test?
inactive

Which outcome was entered for the molecule COC1C=CO[C@@]2(C)Oc3c(C)c(O)c4c(O)c(c(C=NN5CCN(C)CC5)c(O)c4c3C2=O)NC(=O)/C(C)=C\C=CC(C)C(O)[C@@H](C)C(O)C(C)[C@H](OC(C)=O)C1C (some centres undefined) in this test?
active

----------
System: CP325
Assay: qHTS profiling for inhibitors of Plasmodium falciparum proliferation (AID 504749); note: nearly all actives have a fitted effect of over 60% in size
Details: P. falciparum in erythrocytes, SYBR Green DNA, 72 h; series mostly up to 12.8 µM
Records with an inconclusive call do not appear. Calls of active or inactive are those of the source. The call rests on the fitted dose curve; in most records, active means well fitted inhibition curve with a large enough effect; inconclusive means small, poorly fitted or top-dose-only effect; inactive means flat fitted curve, though single readings scatter.
Classes to choose from: active, inactive

The examples below pair each entry with its known result.
>>> class_assignment("CC[C@](C)(CN(C)C)OC(=O)c1ccccc1")
"inactive"
>>> class_assignment("CCC(=O)[C@@]1(C)[C@H](C)C[C@@H]2[C@@H]3CCC4=CC(=O)C=C[C@@]4(C)[C@H]3[C@H](O)C[C@]21C")
"inactive"
>>> class_assignment("NCc1ccccc1CC(=O)N[C@@H]1C(=O)N2C(C(=O)O)=C(CSc3nnnn3CC(=O)O)CS[C@@H]12")
"inactive"
>>> class_assignment("NC[C@@H]1O[C@H](O[C@H]2[C@H](O)[C@H](O[C@@H]3O[C@H](CO)[C@@H](O)[C@H](N)[C@@H]3O)[C@@H](N)C[C@H]2N)[C@@H](O)[C@H](O)[C@@H]1O")
"inactive"
>>> class_assignment("CC[C@H](CO)NCCN[C@@H](CC)CO")
"inactive"

Which outcome was entered for the compound CCOC(=O)O[C@@H](C)OC(=O)[C@@H]1N2C(=O)[C@@H](NC(=O)[C@@H](N)c3ccccc3)[C@H]2SC1(C)C in this test?
inactive

Which outcome was entered for the compound CCO[C@H]1O[C@@H]([C@H](COCc2ccccc2)OCc2ccccc2)[C@@H](OCc2ccccc2)[C@H]1O in this test?
inactive

Which outcome was entered for the compound O=C1O[C@@H]([C@@H](O)CO)[C@@H](O)[C@H]1O in this test?
inactive

Which outcome was entered for the compound C[C@@]12CCC(=O)C=C1C=CC1C2CC[C@]2(C)C1CC[C@@]21CCC(=O)O1 (stereo not given in full) in this test?
inactive

Which outcome was entered for the compound COc1cc(N[C@@H](C)CCCN)c2ncccc2c1 in this test?
active
